Where do these numbers come from? They come from PubChem BioAssay (NCI).

Test system: TK-10 renal
Assay: NCI-60 one-dose screen, 48 h (100 = growth as untreated, 0 = no growth, -100 = all killed)
Conditions: 10 µM unless noted
The panel holds about 83,000 compounds, 20% with a hit somewhere; the sample as a whole holds those more often. Calls of active or inactive are those of the source. How the source made its calls: active means growth percent below 10; inactive means the rest.
Measured growth, listed per entry.

The following molecules have reported results that may help.
CC1=C(C(=O)OCc2ccccc2)C(c2ccc(N(C)C)cc2)n2c(nc3ccccc32)N1 (centres undefined) :: 99.4% (inactive)
O=C(Cn1c(-c2ccccc2)nc2ccccc21)N=Nc1c(O)[nH]c2ccc(Cl)cc12 :: 28.5% (inactive)
C[C@@H]1CN(c2ccc3ncc(C#Cc4cncc(C(=O)Nc5ccc(CN6CCN(C)CC6)c(C(F)(F)F)c5)c4)n3n2)C[C@@H](C)O1 :: -98% (active)

Would you kindly look at the next entry?
State, in one line, measured growth of CN(C)c1nc(NCCNS(=O)(=O)c2ccc(C3=Nc4c(N)nc(N)nc4NC(c4ccc(Cl)cc4)C3)cc2)nc(N2CCOCC2)n1 (centres undefined)
86.8% (inactive)

====

Tested on: A498 renal
Assay: NCI-60 one-dose screen, 48 h (100 = growth as untreated, 0 = no growth, -100 = all killed)
Details: 10 µM unless noted
About 83,000 compounds went through this panel and 20% of them were active in at least one assay; those are over-represented in the sample as a whole.
Please respond with Met when measured growth is strictly beneath 90%, and with Not met in all other cases.

Solved cases (3 shown):
O=C(N/N=C/c1ccc(B(O)O)s1)c1[nH]c2ccc(Br)cc2c1-c1ccccc1 :: Met
O=C(NC(=S)N1CCN(c2ncnc3c2cnn3-c2ccccc2)CC1)c1ccc(Br)cc1 :: Not met
Nc1nn2c(-c3cc4cc(Br)ccc4oc3=O)ccnc2c1N=Nc1ccc(Br)cc1 :: Met

API: query returns whether the compound falls strictly under 90% in growth. Query: Nc1ccc(-c2ccc3ncnc(N4CCc5cc(F)c(Cl)cc54)c3c2)cn1
Met

API: query returns whether the compound falls strictly under 90% in growth. Query: COc1cc(CNC(=O)[C@]23CCC(C)(C)CC2C2=CCC4[C@@]5(C)CCC(OC(C)=O)C(C)(C)C5CC[C@@]4(C)[C@]2(C)CC3)ccc1OCc1cn(-c2ccc(Cl)cc2Cl)nn1 (stereo partly drawn)
Not met

API: query returns whether the compound falls strictly under 90% in growth. Query: C=CC(=O)N1CCN(c2ccc3nc4c(nc3c2C(F)(F)F)C(=O)c2ncccc2C4=O)CC1
Not met

API: query returns whether the compound falls strictly under 90% in growth. Query: COc1ccc([C@H]2C(C(=O)c3ccc(Cl)cc3)C3(N[C@@H]2c2ccccc2)C(=O)Nc2ccccc23)cc1 (stereo partly drawn)
Met

====

Test system: SK-MEL-2 melanoma
Experiment: NCI-60 one-dose screen, 48 h
Details: 10 µM unless noted
Protocol: Growth inhibition of the SK-MEL-2 human tumor cell line is measured as a screen for anti-cancer activity. Cells are grown in 96 well plates and exposed to the test compound for 48 hours. Compounds are tested at a single concentration, which is 10^-5 M for most compounds. The reported endpoint is percent growth (GI% or GIPRCNT), where numbers from 0 - 100% represent growth inhibition, and numbers from -100% - 0 represent cell death. For example, a value of 40 represents 60% growth inhibition. […]
Compounds without any hit were thinned out: in the full panel of roughly 83,000, 20% have a hit. The source made the active and inactive calls. Rule for the calls: active = growth percent below 10; inactive = the rest.
Would you mind answering with one of these outcomes? Yes = active, No = inactive

COC(=O)c1cc(C(=O)C(C)(C)C)n2c3ccccc3c3ccccc3c12 :: No
O=C(NN1C(=O)/C(=C/C=C/c2ccc([N+](=O)[O-])o2)SC1=S)c1ccc(O)cc1 :: Yes
O=C1CC(c2ccc(I)cc2)OC2C=Cc3ccccc3C12 (stereo not given) :: No
O=C(NNC(=O)c1ccc(OCc2nc3ccc(Cl)cc3[nH]2)cc1)Nc1ccc(Cl)c(Cl)c1 :: No

So what was the verdict on CN1C(=O)C2(C(C#N)=C(c3ccc(Cl)cc3)Nc3c2c(-c2ccccc2)nn3-c2ccccc2)c2ccccc21 (stereo not given) in this test?
No

====

Test system: COLO 205 colon
Test: NCI-60 one-dose screen, 48 h (100 = growth as untreated, 0 = no growth, -100 = all killed)
Conditions: 10 µM unless noted
Compounds without any hit were thinned out: in the full panel of roughly 83,000, 20% have a hit.
# label = bin(measured growth), where bins are small value: < 20%; mid value: ≥ 20% and < 80%; large value: ≥ 80%

Entry CN(C)CCCc1ccc(Nc2cnn(C)c(=O)c2Cl)cc1 belongs to which category?
large value

Entry CC(C)CN1C(=O)/C(=C\C(=O)c2cc3ccccc3oc2=O)c2ccccc21 belongs to which category?
mid value

====

Test system: HCT-15 colon
Experiment: NCI-60 one-dose screen, 48 h
Settings: 10 µM unless noted
The panel holds about 83,000 compounds, 20% with a hit somewhere; the sample as a whole holds those more often. Calls of active or inactive are those of the source. How the source made its calls: active means growth percent below 10; inactive means the rest.
Would you mind answering with one of these outcomes? 1 for active, 0 for inactive

Solved cases (8 shown):
Cc1ccc(S(=O)(=O)N(CCn2ccnc2[N+](=O)[O-])CCn2ccnc2[N+](=O)[O-])cc1 :: 0
CC(C)(C)C(=O)c1c2c(c3ccc4c5ccccc5ccc4n13)C(=O)c1ccccc1C2=O :: 0
N#C/C(=C1/C(=O)Nc2ccccc21)c1nnc(NC(=O)c2ccc(-n3c(=O)[nH]c4ccccc4c3=O)cc2)s1 :: 0
C=CCn1c(O)c(N=Nc2nc(-c3cc4ccccc4oc3=O)cs2)c2ccccc21 :: 0
COc1ccc2[nH]c(O)c(N=Nc3nc(-c4ccc(C#N)cc4)cs3)c2c1 :: 0
COc1cc(CNC(=O)C[C@H](C)CCC=C(C)C)ccc1OCc1cn(-c2ccccc2F)nn1 :: 0
N#C/C(=C/c1ccc([N+](=O)[O-])cc1)c1nnc(NC(=O)c2ccc(-n3c(=O)[nH]c4ccccc4c3=O)cc2)s1 :: 0
N#Cc1c(-c2ccc(F)cc2)nc(SCc2ccccc2)nc1N1CCNCC1 :: 1

Next, consider the following compound.
So what was the verdict on CN(C)c1nc(NCCNS(=O)(=O)c2ccc(C(=O)/C=C/c3ccc(Cl)cc3)cc2)nc(N2CCOCC2)n1 in this test?
1

====

System: MCF7 breast
Experiment: NCI-60 one-dose screen, 48 h (100 = growth as untreated, 0 = no growth, -100 = all killed)
Details: 10 µM unless noted
About 83,000 compounds went through this panel and 20% of them were active in at least one assay; those are over-represented in the sample as a whole. Calls of active or inactive are those of the source. How the source made its calls: active means growth percent below 10; inactive means the rest.
observed property: growth

State, in one line, measured growth of O=C1c2cccc3c(N4CCN(Cc5ccccc5)CC4)ccc(c23)C(=O)N1c1cccc(-c2nn(-c3ccccc3)cc2-c2nc3ccccc3s2)c1
88.6% (inactive)

State, in one line, measured growth of Cc1[nH]nc2ccc3nc(-c4cnn(CCO)c4)c4c(c3c12)CCCC4
52.6% (inactive)

State, in one line, measured growth of CCOc1ccc(-c2cc(-c3cc(C(C)C)c(O)cc3C)nn2-c2ccc(S(N)(=O)=O)cc2)cc1
12% (inactive)

State, in one line, measured growth of CC(=O)C[n+]1cccc2c3ccccc3ccc21
77.7% (inactive)

State, in one line, measured growth of CN(C)CCOc1ccc(C(=O)C2[C@H](c3ccc(Cl)cc3)[C@@H](c3ccccc3)NC23C(=O)Nc2ccc(Cl)cc23)cc1 (stereo not given in full)
-81.5% (active)

State, in one line, measured growth of COc1ccc2c(c1)C(Sc1ccc(Br)cc1)c1c(nc(N)c(C#N)c1N)O2 (stereo not given)
61.9% (inactive)

====

Test system: RPMI-8226 leukemia
Experiment: NCI-60 one-dose screen, 48 h (100 = growth as untreated, 0 = no growth, -100 = all killed)
Details: 10 µM unless noted
Compounds without any hit were thinned out: in the full panel of roughly 83,000, 20% have a hit.
# label = bin(measured growth), where bins are bottom = under 30%, middle = from 30% up to 80%, top = 80% and over

Solved cases (7 shown):
CCOC(=O)c1ccc(NC(=S)NC(=O)c2ccc(NC(=O)C(C)C)cc2OC)cc1 :: bottom
Cc1[nH]nc2ccc3nc(-c4cn[nH]c4C(F)(F)F)c4c(c3c12)CCCC4 :: bottom
Cc1ccc2nc(SCc3ccccc3F)n(-c3ccccc3)c(=O)c2c1 :: top
COc1ccc(-c2nc3ccc(-c4nnc(SCc5ccccc5)o4)cc3[nH]2)cc1OC :: middle
Cc1ccc(C(=O)Nc2cc(-n3ccnc3)cc(C(F)(F)F)c2)cc1-n1cc(-c2cnc3cccnn23)nn1 :: top
Nc1cc2ccccc2c(=O)n1NC(=O)c1ccccc1 :: top
O=C(NN1C(=O)/C(=C/C=C/c2ccc([N+](=O)[O-])o2)SC1=S)c1ccc(O)cc1 :: bottom

Next, consider the following compound.
Entry Nc1nnc(-c2cncc(Br)c2)c(-c2c[nH]c3ccc(Br)cc23)n1 belongs to which category?
middle
